Target: BTK-WT (Homo sapiens, UniProt Q06187)
Construct: purified from insect cells as a full-length construct containing an N-terminal 6X-His tag; His6 (N); made in house; host or cells: insect cells (baculovirus Sf21 in Method B)
Sequence (Q06187 whole entry): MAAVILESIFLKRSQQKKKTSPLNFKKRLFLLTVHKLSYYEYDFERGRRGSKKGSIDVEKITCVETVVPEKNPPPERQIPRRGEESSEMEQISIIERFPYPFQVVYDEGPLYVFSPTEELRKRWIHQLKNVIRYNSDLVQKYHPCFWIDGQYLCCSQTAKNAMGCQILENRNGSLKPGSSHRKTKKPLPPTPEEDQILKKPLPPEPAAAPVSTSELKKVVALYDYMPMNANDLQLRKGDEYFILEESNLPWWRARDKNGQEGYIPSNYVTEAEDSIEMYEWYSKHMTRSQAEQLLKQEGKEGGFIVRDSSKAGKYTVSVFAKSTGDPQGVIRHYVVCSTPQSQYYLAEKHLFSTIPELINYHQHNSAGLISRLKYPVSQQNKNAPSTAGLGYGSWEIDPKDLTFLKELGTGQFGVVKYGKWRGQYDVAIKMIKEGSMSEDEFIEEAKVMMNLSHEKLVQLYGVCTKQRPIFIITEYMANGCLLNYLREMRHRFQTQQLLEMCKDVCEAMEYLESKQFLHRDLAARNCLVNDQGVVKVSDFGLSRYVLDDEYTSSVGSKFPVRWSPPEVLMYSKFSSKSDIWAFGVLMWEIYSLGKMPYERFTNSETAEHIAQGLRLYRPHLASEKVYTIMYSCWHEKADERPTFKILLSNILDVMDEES
Assay: Btk in vitro inhibitory activity (one of Method A TR-FRET, Method B electrophoretic mobility shift, Method C radiometric filter binding)
Format: biochemical
Details: D-compounds panel data; read-out: IC50 BTK-WT
Reported IC50 values follow for various compounds

C[C@@H]1[C@H](NC(=O)c2ccc(C(C)(C)CO)cc2)CCCN1c1cnc(C(N)=O)c(Nc2cnn(C)c2)n1    ≤ 10 nM
C[C@@H]1[C@H](NC(=O)c2ccc(C3CC3)cc2)CCCN1c1cnc(C(N)=O)c(Nc2cc(C3CCN(C)CC3)ns2)n1    ≤ 10 nM
Cc1nsc(Nc2nc(N3CCC[C@@H](NC(=O)N(C)C)[C@H]3C)cnc2C(N)=O)c1C    100 to 1000 nM
C[C@@H]1[C@H](NC(=O)c2ccc(SC(F)(F)F)cc2)CCCN1c1cnc(C(N)=O)c(Nc2cnn(C)c2)n1    ≤ 10 nM
CNC(=O)N[C@@H]1CCCN(c2cnc(C(N)=O)c(Nc3cnn(C)c3)n2)[C@@H]1C    ≤ 10 nM

Exercise: Name the recorded IC50 for C[C@@H]1[C@H](NC(=O)N(C)C2CC2)CCCN1c1cnc(C(N)=O)c(Nc2cnn(C)c2)n1 .
Solution: ≤ 10 nM

Exercise: Record request: IC50 value, item C[C@@H]1[C@H](NC(=O)c2ccc(C3CC3)cc2F)CCCN1c1cnc(C(N)=O)c(Nc2ccc(S(=O)(=O)N3CCN(C)CC3)cc2)n1
Solution: ≤ 10 nM

Exercise: Endpoint output: IC50 of C[C@@H]1[C@H](N2Cc3cc(C4CC4)ccc3C2=O)CCCN1c1cnc(C(N)=O)c(Nc2cnn(C)c2)n1 . Value?
Solution: ≤ 10 nM

Exercise: Fill in: IC50 of C[C@@H]1[C@H](NC(=O)c2ccc(C(C)(C)C)cc2)CCCN1c1cnc(C(N)=O)c(Nc2cnn(C)c2)n1 is ___
Solution: ≤ 10 nM

Exercise: Requested read-out: IC50. Entry: C[C@@H]1[C@H](NC(=O)c2ccc(C3CC3)cc2F)CCCN1c1cnc(C(N)=O)c(Nc2ccc(C3(C)CCN(C4CCC4)CC3)cc2)n1
Solution: ≤ 10 nM

Exercise: Name the reported IC50 value associated with the compound Cn1cc(Nc2nc(N3CC[C@@H](O)[C@H](NC(=O)c4ccc(C5CC5)cc4)C3)cnc2C(N)=O)cn1 (racemic)
Solution: 10 to 100 nM

Exercise: So what does the record say about IC50 for CCn1cc(Nc2nc(N3CCC[C@@H](NC(=O)c4ccc(C5CC5)cc4)[C@H]3C)cnc2C(N)=O)cn1 ?
Solution: ≤ 10 nM

Exercise: Record request: IC50 value, item C[C@@H]1[C@H](NC(=O)c2ccc(C3CC3)cc2F)CCCN1c1cnc(C(N)=O)c(Nc2ccc(N3CCNCC3)c(F)c2)n1
Solution: ≤ 10 nM

Exercise: Given the entry C[C@@H]1[C@H](NC(=O)c2ccc(C3CC3)cc2F)CCCN1c1cnc(C(N)=O)c(Nc2ccc(CN3CCN(C)CC3)cn2)n1 , report its measured IC50.
Solution: 10 to 100 nM
